Each entry below carries its reported cleaved RNA product abundance.
System: Bacillus subtilis
Experiment: cleaved RNA product abundance (RNA/gDNA barcode ratio) relative to median wild-type variant (ratio to wild type); higher = more accumulation of the downstream cleavage product
Details: experiment (reporter, strain, medium): exp 8a: truncated aprE reporter, strain BJT201 with 2% xylose (RNase J1 expressed); cleavage site: glnRA (positions -5 to +31 mutated)
Simply state the number, no unit and no words.

CGACATGTCCCGCTTCTTTCATTAATCCGTTAGTAACTGTTTTGCGATATACATTTACCTTTTAAGAGGAGGAAT	0.29
CGACATGTCCCGCTTCTTTCATTAATCCGTTAGCAACTGATTTGCTATAAACATTTACCTTTTAAGAGGAGGAAT	0.686
CGACATGTCCCGCTTCTTTCATTAATCTGTTAGCAACTGTTTTGGTATATACATTTACCTTTTAAGAGGAGGAAT	0.264
CGACATGTCCCGCTTCTTTCATTAATCCGTTAGCAACGGTTGTGCTATATACATTTACCTTTTAAGAGGAGGAAT	0.353

# input // lookup cleaved RNA product abundance for CGACATGTCCCGCTTCTTTCATTAATTCGTTAGAAACTGTTTTGCTATATACATTTACCTTTTAAGAGGAGGAAT
# output 0.285

# input I'd like to know its cleaved RNA product abundance. The sequence in question is CGACATGTCCCGCTTCTTTCATTAATCCGTTAGCAACTGTTTTTCTATAAACATTTACCTTTTAAGAGGAGGAAT
# output 0.459

# input // returns reported cleaved RNA product abundance for input CGACATGTCCCGCTTCTTTCATTAATCCGTCAGCAACTGTATTGCTATATACATTTACCTTTTAAGAGGAGGAAT
# output 0.214

# input For the sequence CGACATGTCCCGCTTCTTTCATTAATCCGTTAGCAAATGTTTTGCTATATACATTTACCCTTTAAGAGGAGGAAT , what cleaved RNA product abundance is on record?
# output 0.852

# input I am curious: what cleaved RNA product abundance value has been reported for CGACATGTCCCGCTTCTTTCATTAATCCGTTAGCAACTGTTTTACTATATACATTTAACTTTTAAGAGGAGGAAT ?
# output 0.539

# input Dear colleague, I am looking for the recorded cleaved RNA product abundance of the following sequence: CGACATGTCCCGCTTCTTTCATTAATCCGTTAGCAACTGTTTTGCTATATAAATTTACCTTTTAAGAGGAGGAAT
# output 0.938
